# maps each entry to its PSV neutralization IC50
# subjectOfTest: SARS-CoV-2 spike on pseudovirus or live virus (USA-WA1/2020, WT) (SARS-CoV-2, UniProt P0DTC2 14-1273)
# protocolDetails: cell-based or functional assay
Report the figure in µg/mL without appending any unit label.

Consider the following illustrative entries.
L12.bP11A11 (antibody, V domains shown, human IgG1) VH: QVQLVQSGAEVKKPGASVKVSCKASGYTFTGYYMHWVRQAPGQGLEWMGWISPNSGGTNYAQKFQGWVTMTRDTSVSTAYMELSRLRFDDTAVYYCATESWVYGSGSYSSGAFDIWGQGTMVTVSS VL: QSVLTQPPSASGSPGQSVTISCTGTSSDVGGYDYVSWYQQHPGKAPKLMIYEVSKRPSGVPDRFSGSKSGNTASLTVPGLQAEDEADYYCTSYAGSNNFVFGGGTKLIVL : 0.016
L12.bP10G07 (antibody, V domains shown, human IgG1) VH: EVQLVQSGAEVKKPGASVKVSCKASGYIYSGYYMHWVRQAPGQGLEWMGWISPDSGGTNYAQRFQGRVTMTRDTSTTTAYMELSRLRSDDTAMYYCARGPRYSGTYFDYWGQGTLVTVSS VL: QTVVTQPASVSGSPGQSITISCTGTSSDVGGYNYVSWYQQHPDKAPKLIIYDVSNRPSGVSNRFSGSKSGNTASLTISGLQAEDEAAYYCSSYTSSSTQVFGGGTKLTVL : 0.865

Now examine the next entry.
QUERY: Report PSV neutralization IC50 for L12.cP07E10 (antibody, V domains shown, human IgG1) VH: EVQLVESGGGLIQPGGSLRLSCAASGFTVSSNYMSWVRQAPGKGLEWVSVIYSGGSTYYADSVKGRFTISRDNSKNTLYLQMNSLRAEDTAVYYCARDPYGYSSIWDGQGGHWGQGTLVTVSS VL: DVVMTQSPSSLSASVGDRVTITCQASQDISNYLNWYQQKPGKAPKLLIYDASNFATGVPSRFSGTGSGTDFTFTISSLQPEDIATYYCQQYDNLPITFGQGTRLEIK please.
RESULT: 0.029
